System: Staphylococcus aureus
assay.comment: Antibacterial activity against multidrug-resistant Staphylococcus aureus isolate 2516 by broth microdilution assay
Type: functional
reported.property: MIC
Kindly report the value followed by its unit.

Cc1onc(-c2ccccc2Cl)c1C(=O)N[C@@H]1C(=O)N2[C@@H]1SC(C)(C)[C@@H]2C(=O)O: 16 µg/mL

List the reported MIC of each molecule below.
1. CC1(C)S[C@@H]2[C@H](NC(=O)[C@H](N)c3ccc(O)cc3)C(=O)N2[C@H]1C(=O)O
2. CO/N=C(\C(=O)N[C@@H]1C(=O)N2C(C(=O)O)=C(COC(N)=O)CS[C@H]12)c1ccco1
3. CCCCCCCCCNc1ccc(F)c(C(N)=O)c1F
4. C[C@@H](O)[C@H]1C(=O)N2C(C(=O)O)=C(S[C@@H]3CN[C@H](C(=O)N(C)C)C3)[C@H](C)[C@H]12
5. COc1cccc(OC)c1C(=O)N[C@@H]1C(=O)N2[C@@H]1SC(C)(C)[C@@H]2C(=O)O

Reply:
1. 64 µg/mL
2. 512 µg/mL
3. 32 µg/mL
4. 16 µg/mL
5. 64 µg/mL
